Measured pEC50 values are reported for all entries that follow.
# measuredTarget: KCNQ2/3 channels (Homo sapiens, UniProt O43525+O43526)
# assay: Fluorescence assay using a voltage-sensitive dye (fluorimetry)
# conditionParameters: CHO-K1 cells expressing KCNQ2/3 channels
# Protocol: […] CHO-K1 cells expressing KCNQ2/3 channels are cultivated adherently at 37° C., 5% CO2 and 95% humidity in cell culture bottles (e.g. 80 cm^2 TC flasks, Nunc) with DMEM-high glucose (Sigma Aldrich, D7777) including 10% FCS (PAN Biotech, e.g. 3302-P270521) or alternatively MEM Alpha Medium (1×, liquid, Invitrogen, #22571), 10% foetal calf serum (FCS) (Invitrogen, #10270-106, heat-inactivated) and the necessary selection antibiotics. […]
pEC50: −log10 of the molar value.
recordedMetric: pEC50

> print(dat)
                             compoundsmiles  recordedmetric  measured
1  CCSc1nc2cc(C(F)(F)F)ccc2c(C)c1C(=O)NCCC(C)C           pEC50      7.07
2  CCSc1nc2cc(C(F)(F)F)ccc2c(C)c1C(=O)NCc1ccncc1           pEC50      5.58
3  CCSc1nc2cc(C(F)(F)F)ccc2c(C)c1C(=O)NCCc1ccccc1           pEC50      6.33
4  CCSc1nc2cc(C(F)(F)F)ccc2c(C)c1C(=O)NCc1cc(F)cc(F)c1           pEC50      6.84
5  CCSc1nc2cc(C(F)(F)F)ccc2c(C)c1C(=O)NCc1ccccc1F           pEC50      7.15
6  CCSc1nc2ccc(C)cc2c(C)c1C(=O)NCc1ccc(F)cc1           pEC50      6.47
7  CCCCCSc1nc2cc(C(F)(F)F)ccc2c(C)c1C(=O)NCc1cccc(F)c1           pEC50      7.21
8  O=C(NCc1cccs1)c1cc2ccccc2nc1SCCS(=O)(=O)c1ccc(F)cc1           pEC50      7.11

* * *

# measuredTarget: KCNQ2/3 channels (Homo sapiens, UniProt O43525+O43526)
# Construct: expressed in transfected cells; host or cells: CHO-K1 cells
# assay: Fluorescence assay using a voltage-sensitive dye (fluorimetry)
# Assay type: cell-based
# conditionParameters: at 1 μM; 50 μM retigabine = 100%; CHO-K1 cells expressing KCNQ2/3; read-out: Fluorimetry % efficacy at 1 μM (50 μM retigabine = 100%)
recordedMetric: Emax at 1 µM (%)

> print(dat)
                                   compound  recordedmetric  measured
1  CCSc1nc2cc(C(F)(F)F)ccc2c(C)c1C(=O)NCc1ccco1 [compound 110]    Emax at 1 µM       183
2  CCSc1nc2cc(C(F)(F)F)ccc2c(C)c1C(=O)NCc1ccc(C(F)(F)F)cc1 [compound 55]    Emax at 1 µM       167
3  O=C(NCc1cccs1)c1cc2ccccc2nc1SCCS(=O)(=O)c1ccc(F)cc1 [compound 16]    Emax at 1 µM       164
4  Cc1ccc(SCCSc2nc3ccccc3cc2C(=O)NCc2cccs2)cc1 [compound 18]    Emax at 1 µM        72
5  CCSc1nc2ccc(C(F)(F)F)cc2c(C)c1C(=O)NCc1cccc(F)c1 [compound 103]    Emax at 1 µM       115
6  CCSc1nc2cc(C(F)(F)F)ccc2c(C)c1C(=O)NCc1cc(F)cc(F)c1 [compound 87]    Emax at 1 µM       159

* * *

# measuredTarget: KCNQ2/3 channels (Homo sapiens, UniProt O43525+O43526)
# Construct: expressed in transfected cells; host or cells: CHO-K1 cells
# assay: Fluorescence assay using a voltage-sensitive dye (fluorimetry)
# Type: cell-based
# conditionParameters: at 1 μM; 50 μM retigabine = 100%; CHO-K1 cells expressing KCNQ2/3; read-out: Fluorimetry % efficacy at 1 μM (50 μM retigabine = 100%)
# Experimental: […] CHO-K1 cells expressing KCNQ2/3 channels are cultivated adherently at 37° C., 5% CO2 and 95% humidity in cell culture bottles (e.g. 80 cm^2 TC flasks, Nunc) with DMEM-high glucose (Sigma Aldrich, D7777) including 10% FCS (PAN Biotech, e.g. 3302-P270521) or alternatively MEM Alpha Medium (1×, liquid, Invitrogen, #22571), 10% foetal calf serum (FCS) (Invitrogen, #10270-106, heat-inactivated) and the necessary selection antibiotics. […]
Measured Emax at 1 µM by item
recordedMetric: Emax at 1 µM

> print(dat)
                             compoundsmiles                            measuredtarget  measured
1  CCSc1nc2cc(C(F)(F)F)ccc2c(C)c1C(=O)NCc1cccc(OC)c1  KCNQ2/3 channels (Homo sapiens, UniProt O43525+O43526)       89%
2  CCSc1nc2cc(OC(F)(F)F)ccc2c(C)c1C(=O)NCc1ccc(F)cc1  KCNQ2/3 channels (Homo sapiens, UniProt O43525+O43526)      161%
3  O=C(NCc1cccs1)c1cc2ccccc2nc1SCCS(=O)(=O)c1cccc(C(F)(F)F)c1  KCNQ2/3 channels (Homo sapiens, UniProt O43525+O43526)      136%
4  Cc1c(C(=O)NCc2cccs2)c(SC(C)(C)C)nc2cc(C(F)(F)F)ccc12  KCNQ2/3 channels (Homo sapiens, UniProt O43525+O43526)      220%
5  CCSc1nc2cccc(F)c2c(C)c1C(=O)NCc1cccc(F)c1  KCNQ2/3 channels (Homo sapiens, UniProt O43525+O43526)        8%

* * *

# Emax at 1 µM per entry
# measuredTarget: KCNQ2/3 channels (Homo sapiens, UniProt O43525+O43526)
# Construct: expressed in transfected cells; host or cells: CHO-K1 cells
# assay: Fluorescence assay using a voltage-sensitive dye (fluorimetry)
# Type: cell-based
# conditionParameters: at 1 μM; 50 μM retigabine = 100%; CHO-K1 cells expressing KCNQ2/3; read-out: Fluorimetry % efficacy at 1 μM (50 μM retigabine = 100%)
recordedMetric: Emax at 1 µM (%)

> print(dat)
                             compoundsmiles  measureunit  measured
1  CCSc1nc2cc(C(F)(F)F)ccc2c(C)c1C(=O)NCc1ccc(Cl)cc1            %       135
2  CCSc1nc2c(F)cccc2c(C)c1C(=O)NCc1cccc(F)c1            %       157
3  CCSc1nc2ccc(OC)cc2c(C)c1C(=O)NCc1cccc(F)c1            %        17
